assay: Lipid nanoparticle size and polydispersity by dynamic light scattering; type: physicochemical; conditions: LNP of lipid/DSPC/cholesterol/PEG-lipid 50:10:38.5:1.5 encapsulating hEPO mRNA
Outcome label depends on polydispersity relative to 0.07: at/above gives t, below gives f.

As a guide, the following entries are already answered.
[
  {
    "molecule": "CCCCCCCCC(CCCCCCCC)COC(=O)CCCCCN(CCO)CCN(CCCCCOC(=O)CCCCC=C(CCCCCC)CCCCCC)C1CCC1",
    "class.name": "f"
  },
  {
    "molecule": "CCCCCCCCCCCOC(=O)CCCCCN(CCN(CCO)CCCCCC(=O)OCC(CCCCCCCC)CCCCCCCC)C1CCCCC1",
    "class.name": "f"
  },
  {
    "molecule": "CCCCCCCCC(CCCCCCCC)CNC(=O)CCCCCN(CC=C(C)C)CCN(CCO)CCCCCC(=O)OCC(CCCCCCCC)CCCCCCCC",
    "class.name": "t"
  },
  {
    "molecule": "CCCCCCCCCCCOC(=O)CCCCCN(CC=C(C)C)CCN(CCO)CCCCCC(=O)OCC(CCCCCCCC)CCCCCCCC",
    "class.name": "t"
  },
  {
    "molecule": "CCCCCCCCCCCOC(=O)CCCCCN(CCN(CCO)CCCCCC(=O)OCC(CCCCCCCC)CCCCCCCC)C1CCCC1",
    "class.name": "f"
  },
  {
    "molecule": "CCCCCCCCC(CCCCCC)CNC(=O)CCCCCN(CCCCN(CCO)CCCCC(COC(=O)CCCCCCC)COC(=O)CCCCCCC)C1CCCCC1 (centres unmarked)",
    "class.name": "t"
  }
]

q: Test whether the molecule CCCCCCCCC(CCCCCCCC)COC(=O)CCCCCN(CCO)Cc1ccc(CN(CCCCCC(=O)OCC(CCCCCCCC)CCCCCCCC)C2CCC2)cc1 records polydispersity of 0.07 or higher.
a: t

q: For CCCCCCCCC(CCCCCC)CNC(=O)CCCCCCCN(CCO)CCN(CCCCC(COC(=O)CCCCCCC)COC(=O)CCCCCCC)C1CCCC1 (centres unmarked) then?
a: f

q: For CCCCCCCCC(CCCCCC)COC(=O)CCCCCN(CCO)CCN(CCCCC(COC(=O)CCCCCCC)COC(=O)CCCCCCC)C1CCCCCCC1 (centres unmarked) then?
a: t

q: For CCCCCCCCC(CCCCCC)CNC(=O)CCCCCCCN(CCO)CCN(CCCCC(COC(=O)CCCCCCC)COC(=O)CCCCCCC)C1CCCCCCC1 (centres unmarked) then?
a: f

----------
experiment: Encapsulation efficiency of lipid nanoparticles, Quant-it Ribogreen RNA assay; assay type: physicochemical; conditions: LNP of lipid/DSPC/cholesterol/PEG-lipid 50:10:38.5:1.5 encapsulating hEPO mRNA
measured.quantity: Encapsulation Efficiency
I'd appreciate it if you included the unit after the number.

Completed entries (count: 4):
[
  {
    "compound": "CCCCCCCCC(CCCCCCCC)COC(=O)CCCCCN(CCO)CCCCN(CCCCCC(=O)OCC(CCCCCCCC)CCCCCCCC)C1CCC1",
    "Encapsulation Efficiency": "95.02%"
  },
  {
    "compound": "CCCCCCCC(=O)OCC(CCCCN(CCC)CCCCN(CCO)CCCCC(COC(=O)CCCCCCC)COC(=O)CCCCCCC)COC(=O)CCCCCCC",
    "Encapsulation Efficiency": "90.65%"
  },
  {
    "compound": "CCCCCCCCC(CCCCCCCC)COC(=O)CCCCCN(CCCCCN(CCO)CCCCC(COC(=O)CCCCCCC)COC(=O)CCCCCCC)C1CCC1",
    "Encapsulation Efficiency": "94.26%"
  },
  {
    "compound": "CCCCCCCCCCCOC(=O)CCCCCN(CCN(CCO)CCCCCC(=O)OCC(CCCCCC)CCCCCCCC)C1CCCC1 (stereo not drawn)",
    "Encapsulation Efficiency": "92.7%"
  }
]

q: Quick one: Encapsulation Efficiency of CCCCCCCCC(CCCCCCCC)COC(=O)/C=C/CN(CCO)CCN(CCCCCC(=O)OCC(CCCCCCCC)CCCCCCCC)C1CCC1 ?
a: 93.93%

q: For CCCCCCCCC(CCCCCC)CNC(=O)CCN(CCO)CCN(CCCCC(COC(=O)CCCCCCC)COC(=O)CCCCCCC)C1CCCCCCC1 (stereo not drawn) then?
a: 88.38%
